Origin of measurements: patent US6545007B2

# Test system: HIV-1 (IIIB strain)
# Format: cell-based
# CONDITION_DESCRIPTION: anti-HIV-1 activity, HIV-1-infected MT-4 cells
Could you please report measured pEC50 for the items listed next?
Answers are plain numbers, as −log10 of the molar value.

CCCCNc1nc(Cc2c(F)cccc2F)cc(=O)[nH]1 ... 7.00
CSc1nc(Cc2c(Cl)cccc2Cl)c(C)c(=O)[nH]1 ... 5.49
CCC(c1cc(=O)[nH]c(SC2CCCCC2)n1)c1c(Cl)cccc1Cl (stereo not shown) ... 5.44
CNc1nc(Cc2c(F)cccc2F)cc(=O)[nH]1 ... 5.82
CCC(C)Sc1nc(Cc2ccccc2Cl)c(C)c(=O)[nH]1 (stereo not shown) ... 6.57

Please give pEC50 for each item listed below.
1. CCCCSc1nc(Cc2c(F)cccc2F)c(C)c(=O)[nH]1
2. CCCCSc1nc(Cc2c(F)cccc2F)cc(=O)[nH]1
3. CCc1c(Cc2cccc3ccccc23)nc(SC(C)CC)[nH]c1=O (stereo not shown)
4. CC(C)Sc1nc(Cc2c(F)cccc2F)cc(=O)[nH]1

Result:
1. 7.10
2. 6.74
3. 5.28
4. 6.70

Problem: Missing value: pEC50, HIV-1 (IIIB strain), entry "CC(C)Sc1nc(Cc2c(Cl)cccc2Cl)cc(=O)[nH]1" . Fill in?
Result: 5.72
